Each recorded value in this set is attributed to paper PMC9911399.

# target_desc: T1, RBFOX1 RRM (Homo sapiens, UniProt Q9NWB1 109-208)
# T1 sequence: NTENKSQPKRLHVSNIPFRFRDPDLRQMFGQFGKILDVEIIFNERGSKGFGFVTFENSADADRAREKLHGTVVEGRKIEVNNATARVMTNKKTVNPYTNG
# protocol_text: EMSA; HiTS-Eq, 1 nM pool, 10 min; buffer printed only for the single-RNA assays: 10 mM Tris pH 7.5, 150 mM NaCl, 3.4 mM EDTA, 0.001% NP-40, 30 C
# condition: tags: His6 N-terminal (pET28a); label: 5' 32P
Over roughly 16,000 sequences, “ka relative to ugcaugu” has its median near 0.0091; the highest 2% begin near 0.032. Only a selection was taken, and the highest values are over-represented in it overall.
Catalogue of binding signal readings, one per entry.

Some binders with recorded binding signal:
{"binder": "UGGUUGU (DNA:RNA) RNA: GGGAGACCGGAAUUCAGAUUGUCCUGGUUGUUUAAAUCCCGUCGUAGCCACCA DNA 1: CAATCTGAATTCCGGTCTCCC DNA 2: TGGTGGCTACGACGGGATT", "binding signal": "0.0314 KA relative to UGCAUGU"}
{"binder": "UGGUUUG (DNA:RNA) RNA: GGGAGACCGGAAUUCAGAUUGUCCUGGUUUGUUAAAUCCCGUCGUAGCCACCA DNA 1: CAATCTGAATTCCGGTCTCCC DNA 2: TGGTGGCTACGACGGGATT", "binding signal": "0.0372 KA relative to UGCAUGU"}

Moving on to the next binder.
Any idea what binding signal was measured for UGCCUGA (DNA:RNA) RNA: GGGAGACCGGAAUUCAGAUUGUCCUGCCUGAUUAAAUCCCGUCGUAGCCACCA DNA 1: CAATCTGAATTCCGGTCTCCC DNA 2: TGGTGGCTACGACGGGATT ?
0.0398 KA relative to UGCAUGU
